These data points were gathered from paper PMC9482650.

Biological target: T1, MPDZ_10, O75970
T1 sequence (O75970 1624-1722, limits assumed, looked up): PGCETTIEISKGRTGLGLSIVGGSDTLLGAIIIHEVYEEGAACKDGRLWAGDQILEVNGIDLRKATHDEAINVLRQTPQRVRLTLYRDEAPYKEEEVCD
Experiment: holdup assay
Design: key: below the threshold = too weak to quantify, mostly under pKd 3.1 to 4
Settings: plain residues with an end cap or a label only (N-terminal biotin on a linker: ado-ado)
MEASUREMENT_TYPE: pKd

# BINDER, MEASUREMENT_TYPE, VALUE
rows = [
    ("EDLEDEWEVI [TECPR2, O15040]", "pKd", "below the threshold"),
    ("QKAPTKEFYA [SDC2, P34741]", "pKd", "below the threshold"),
    ("AQRARSPSDV [GPR12, P47775]", "pKd", 4.09),
    ("LESTTVGTSV [KARS1, Q15046]", "pKd", 3.72),
    ("NTANRRTTPV [CACNG2, Q9Y698]", "pKd", 3.87),
    ("PYSESDDDWC [CACNA1A, O00555]", "pKd", "below the threshold"),
]

Data request: Need pKd, item ARSAAASNYV [CLDN4, O14493]
Data returned: below the threshold

Data request: # lookup: pKd of NISYRRESAI [KCNJ4, P48050]
Data returned: below the threshold

Data request: // returns reported pKd for input MHIQEKGFHV [EPHA6, Q9UF33]
Data returned: below the threshold

Data request: # lookup: pKd of DPAESMESLV [PTPRG, P23470]
Data returned: below the threshold

Data request: // lookup pKd for AEASVACSLC [PTGIR, P43119]
Data returned: 3.47

Data request: What value of measured pKd is listed for SFISKKEWYV [NECTIN1, Q15223] ?
Data returned: below the threshold

Data request: # input binder: DDASLPVSDV [PLEKHA1, Q9HB21] ; wanted: its pKd
Data returned: 3.91

Data request: Look up pKd for this binder: RDPPAEWTRV [PTPN18, Q99952]
Data returned: below the threshold

Data request: Could you tell me which pKd is on file for STKRKLASAV [NCF1, P14598] ?
Data returned: 3.64

Data request: Return reported pKd; argument: APIAGFSSFV [SDK2, Q58EX2]
Data returned: below the threshold
